Would you kindly list EGFR % Activity Set2 for each of these molecules?
biological target: EGFR (Homo sapiens); assay: ADP-Glo kinase assay, EGFR; assay type: biochemical; design: purchased BPS Bioscience (assay run externally by the vendor); settings: Log[nM] 1.5; Set2
Sequence (P00533 25-1210): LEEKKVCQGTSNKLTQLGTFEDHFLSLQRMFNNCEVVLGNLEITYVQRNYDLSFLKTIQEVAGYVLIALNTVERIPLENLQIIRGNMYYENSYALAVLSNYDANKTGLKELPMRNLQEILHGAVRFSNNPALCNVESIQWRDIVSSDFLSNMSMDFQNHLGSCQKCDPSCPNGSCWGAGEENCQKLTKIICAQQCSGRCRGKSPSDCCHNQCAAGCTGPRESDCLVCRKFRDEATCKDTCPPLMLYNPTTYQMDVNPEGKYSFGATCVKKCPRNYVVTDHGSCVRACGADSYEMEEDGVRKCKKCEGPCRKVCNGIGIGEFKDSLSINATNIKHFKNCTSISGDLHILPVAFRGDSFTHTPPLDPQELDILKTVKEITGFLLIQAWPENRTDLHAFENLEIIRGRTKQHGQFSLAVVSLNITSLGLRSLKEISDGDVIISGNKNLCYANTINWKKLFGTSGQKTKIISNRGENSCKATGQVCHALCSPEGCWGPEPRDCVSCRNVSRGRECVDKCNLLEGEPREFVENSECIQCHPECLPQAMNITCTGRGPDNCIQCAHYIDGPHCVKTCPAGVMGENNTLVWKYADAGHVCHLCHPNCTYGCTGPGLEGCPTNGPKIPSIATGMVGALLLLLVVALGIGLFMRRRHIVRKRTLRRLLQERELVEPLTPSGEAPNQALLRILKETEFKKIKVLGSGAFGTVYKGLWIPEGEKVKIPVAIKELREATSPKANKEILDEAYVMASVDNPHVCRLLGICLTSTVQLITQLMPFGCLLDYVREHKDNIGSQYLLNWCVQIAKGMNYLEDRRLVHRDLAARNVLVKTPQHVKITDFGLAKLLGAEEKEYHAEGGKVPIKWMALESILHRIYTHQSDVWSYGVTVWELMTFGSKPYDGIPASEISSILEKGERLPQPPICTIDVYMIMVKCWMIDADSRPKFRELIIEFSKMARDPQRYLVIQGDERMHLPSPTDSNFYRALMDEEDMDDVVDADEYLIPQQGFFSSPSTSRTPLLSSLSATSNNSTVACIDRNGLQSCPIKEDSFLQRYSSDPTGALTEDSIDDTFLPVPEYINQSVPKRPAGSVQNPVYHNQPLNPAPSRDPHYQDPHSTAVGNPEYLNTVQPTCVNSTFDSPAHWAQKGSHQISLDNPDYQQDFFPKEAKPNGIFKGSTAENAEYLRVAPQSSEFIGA
Write down the numeric answer in % and omit the unit.

The measured EGFR % Activity Set2 associated with Clc1cccc(Nc2ncnc3[nH]ccc23)c1 reads 16

The measured EGFR % Activity Set2 associated with Brc1ccc(Nc2ncnc3[nH]ccc23)cc1 reads 82

The measured EGFR % Activity Set2 associated with Cc1ccc(Nc2ncnc3[nH]ccc23)cc1 reads 108

The measured EGFR % Activity Set2 associated with Clc1ccc(Nc2ncnc3[nH]ccc23)cc1Br reads 13
